Provide the reported SARS-CoV-2 infection rate of each item.
# Tested on: Vero E6 infected with SARS-CoV-2
# Assay Details: SARS-CoV-2 infection rate relative to infected DMSO; higher = more infection, active = 60 or less
# Condition Details: 24 h
Respond numerically; units are % and should not be typed.

The compound COc1ccc(CCNCc2ccc(OCc3ccc(Cl)nc3)c(OC)c2)cc1OC (10 µM) showed SARS-CoV-2 infection rate equal to 98

The compound C[C@H]1O[C@@H](O[C@H]2CC[C@@]3(C)[C@H](CC[C@@H]4[C@@H]3C[C@@H](O)[C@]3(C)[C@@H](C5=CC(=O)OC5)CC[C@]43O)C2)C[C@H](O)[C@@H]1O[C@H]1C[C@H](O)[C@H](O[C@H]2C[C@H](O)[C@H](O[C@@H]3O[C@H](CO)[C@@H](O)[C@H](O)[C@H]3O)[C@@H](C)O2)[C@@H](C)O1 [deslanoside] (0.833333 µM) showed SARS-CoV-2 infection rate equal to 114

The compound CC1=C(/C=C/C(C)=C/C=C/C(C)=C/C=C/C=C(C)/C=C/C=C(C)/C=C/C2=C(C)C(=O)[C@@H](O)CC2(C)C)C(C)(C)C[C@H](O)C1=O [astaxanthin] (10 µM) showed SARS-CoV-2 infection rate equal to 107

The compound CCOC(=O)[C@@H](N)Cc1ccc(-c2cc(O[C@H](c3ccc(Cl)cc3-n3ccc(C)n3)C(F)(F)F)nc(N)n2)cc1 [telotristat-ethyl] (10 µM) showed SARS-CoV-2 infection rate equal to 95.5

The compound CN1[C@H]2C[C@H](OC(=O)[C@H](CO)c3ccccc3)C[C@@H]1[C@@H](O)C2 [anisodamine] (10 µM) showed SARS-CoV-2 infection rate equal to 116

---

Provide the reported inhibition of SARS-CoV-2 cytopathic effect of each item.
# Test system: Vero E6 infected with SARS-CoV-2
# Assay Details: inhibition of SARS-CoV-2 cytopathic effect; higher = more antiviral protection, active = above 15
# Condition Details: 1 nM; 48 h
Respond numerically; units are % and should not be typed.

The compound COc1cccc2c1c(O)c(C(=O)N(C)c1ccc(C(F)(F)F)cc1)c(=O)n2C [tasquinimod] showed inhibition of SARS-CoV-2 cytopathic effect equal to 1.2

The compound NP(N)(=O)NC(=O)c1ccc(F)cc1 [flurofamide] showed inhibition of SARS-CoV-2 cytopathic effect equal to 3.53

The compound c1ccc2c(c1)CCC[C@H]2Nc1nc2ccccc2[nH]1 showed inhibition of SARS-CoV-2 cytopathic effect equal to 2.74

The compound C=CCN1CC[C@]23CCCC[C@H]2[C@H]1Cc1ccc(O)cc13 [levallorphan] showed inhibition of SARS-CoV-2 cytopathic effect equal to -1.28

The compound C[N+](C)(C)CCCCCCCCCC[N+](C)(C)C [decamethonium] showed inhibition of SARS-CoV-2 cytopathic effect equal to -3.35

The compound CC1(C)CC(=O)C(C2C3=C(CC(C)(C)CC3=O)Oc3ccccc32)C(=O)C1 (centres undefined) showed inhibition of SARS-CoV-2 cytopathic effect equal to -0.63

The compound CNCCc1ccc(O)c(O)c1 [deoxyepinephrine] showed inhibition of SARS-CoV-2 cytopathic effect equal to -0.96

The compound Cc1cc(-c2nc(C(=O)Nc3cn(C4CCOCC4)nc3C(N)=O)co2)ccn1 showed inhibition of SARS-CoV-2 cytopathic effect equal to -2.34

The compound C[C@H]1c2cccc(O)c2C(=O)C2=C(O)[C@]3(O)C(=O)C(C(N)=O)=C(O)[C@@H](N(C)C)[C@@H]3[C@@H](O)[C@@H]21 [doxycycline] showed inhibition of SARS-CoV-2 cytopathic effect equal to -1.68

The compound CNC(=O)Nc1ccc(-c2nc(N3CC4CCC(C3)O4)c3cnn(C4CCC5(CC4)OCCO5)c3n2)cc1 showed inhibition of SARS-CoV-2 cytopathic effect equal to -1.21

The compound CC(C)=CCC/C(C)=C/CC/C(C)=C/CSc1ccccc1C(N)=O [farnesyl-thiosalicylic-acid-amide] showed inhibition of SARS-CoV-2 cytopathic effect equal to -1.77

The compound CCCN1CC(NS(=O)(=O)N(CC)CC)CC2Cc3c(O)cccc3CC21 (centres undefined) [quinagolide] showed inhibition of SARS-CoV-2 cytopathic effect equal to -1.57

The compound CCCn1c(=O)[nH]c2nc(-c3ccc(S(=O)(=O)O)cc3)[nH]c2c1=O showed inhibition of SARS-CoV-2 cytopathic effect equal to 0.98

The compound CC(C)(C)c1cc(C(C)(C)C)c2c(c1)C(O)(C(F)(F)F)C(=O)O2 (racemic) showed inhibition of SARS-CoV-2 cytopathic effect equal to 5.52

The compound Cc1nc(C)c(C)nc1C [chuanxiongzine] showed inhibition of SARS-CoV-2 cytopathic effect equal to 2.81

The compound O=C1CCC2CCC(=O)N12 [rolziracetam] showed inhibition of SARS-CoV-2 cytopathic effect equal to 0.67

The compound CN=C(N)NCCC[C@H](N)C(=O)O [L-monomethylarginine] showed inhibition of SARS-CoV-2 cytopathic effect equal to -0.78

The compound C[N+]1(C)[C@@H]2CC[C@H]1C[C@@H](OC(=O)C(CO)c1ccccc1)C2 (some centres undefined) [methylatropine-nitrate] showed inhibition of SARS-CoV-2 cytopathic effect equal to 1.74

The compound O=C(O)CCNc1cc(N2CCc3ccccc3CC2)nc(-c2cccnc2)n1 showed inhibition of SARS-CoV-2 cytopathic effect equal to 0.26

Values were extracted from the supplement of paper PMC13380429.
